Hello, the source for this data is patent US12649737B2, in case you need it.

# System: BRM (Homo sapiens)
pIC50: −log10 of the molar value.
Experimental readout: pIC50

Please give the measured pIC50 for this compound: COc1ccc(-c2ccc3nc(CNC(=O)c4ccn(C(C)(C)C)c4)[nH]c3n2)cc1 [Compound 6]
6.00 to 7.00

Also CC(C)(C)n1ccc(C(=O)NCc2nc3ccc(-c4ccc5c(c4)OCC5)cc3[nH]2)c1 [Compound 45] ?
7.00 to 8.00

Below is a list of compounds. For each, state its recorded pIC50.
1. CS(=O)(=O)n1ccc(C(=O)NCc2cc3nc(-c4ccc5c(c4)CCO5)ccc3cn2)c1 [Compound 67]
2. C[C@@H]1CN(c2cccc(-c3ccc4cnc(CNC(=O)c5ccn(C(C)(C)C)c5)cc4n3)n2)C[C@H](C)O1 [Compound 77]
3. C[C@@H]1CN(c2cccc(-c3ccc4nc(CNC(=O)c5ccn(S(C)(=O)=O)c5)[nH]c4n3)c2)C[C@H](C)O1 [Compound 13]
4. CC(C)(C)n1ccc(C(=O)NCc2nc3ccc(-c4cc(Cl)cc(C#N)c4)cc3[nH]2)c1 [Compound 30]
5. CC(C)S(=O)(=O)n1ccc(C(=O)NCc2nc3ccc(-c4cccc(-c5ccncc5)c4)nc3[nH]2)c1 [Compound 3]
6. CC(C)(C)n1ccc(C(=O)NCc2nc3ccc(-c4cccc(C#N)c4)cc3[nH]2)c1 [Compound 39]
7. CN1CCOc2ccc(-c3ccc4cnc(CNC(=O)c5ccn(S(C)(=O)=O)c5)cc4n3)cc21 [Compound 69]
8. COc1cccc(-c2ccc3nc(CNC(=O)c4cc(C)n(S(C)(=O)=O)c4)[nH]c3c2)c1 [Compound 17]

6.00 to 7.00
7.00 to 8.00
7.00 to 8.00
7.00 to 8.00
7.00 to 8.00
6.00 to 7.00
7.00 to 8.00
7.00 to 8.00

Below is a list of compounds. For each, state its recorded pIC50.
1. CC(C)(C)n1ccc(C(=O)NCc2nc3ccc(-c4ccc5cnccc5c4)cc3[nH]2)c1 [Compound 41]
2. CC(C)(C)OCc1cccc(-c2ccc3nc(CNC(=O)c4ccn(C(C)(C)C)c4)[nH]c3c2)c1 [Compound 46]
3. C[C@@H]1CN(c2ccc(-c3ccc4nc(CNC(=O)c5ccn(S(C)(=O)=O)c5)[nH]c4n3)cc2)C[C@H](C)O1 [Compound 14]
4. CC(C)(C)n1ccc(C(=O)NCc2nc3ccc(-c4cnn5ccccc45)cc3[nH]2)c1 [Compound 47]

1: 7.00 to 8.00; 2: 7.00 to 8.00; 3: 6.00 to 7.00; 4: 7.00 to 8.00

Please give the measured pIC50 for this compound: COc1cccc(-c2ccc3nc(CNC(=O)c4ccn(C(C)(C)C)c4)[nH]c3c2)c1 [Compound 16]
6.00 to 7.00

###

A short record of IC50 observed with BRM (Homo sapiens, UniProt P51531) follows.
Sequence (P51531 whole entry): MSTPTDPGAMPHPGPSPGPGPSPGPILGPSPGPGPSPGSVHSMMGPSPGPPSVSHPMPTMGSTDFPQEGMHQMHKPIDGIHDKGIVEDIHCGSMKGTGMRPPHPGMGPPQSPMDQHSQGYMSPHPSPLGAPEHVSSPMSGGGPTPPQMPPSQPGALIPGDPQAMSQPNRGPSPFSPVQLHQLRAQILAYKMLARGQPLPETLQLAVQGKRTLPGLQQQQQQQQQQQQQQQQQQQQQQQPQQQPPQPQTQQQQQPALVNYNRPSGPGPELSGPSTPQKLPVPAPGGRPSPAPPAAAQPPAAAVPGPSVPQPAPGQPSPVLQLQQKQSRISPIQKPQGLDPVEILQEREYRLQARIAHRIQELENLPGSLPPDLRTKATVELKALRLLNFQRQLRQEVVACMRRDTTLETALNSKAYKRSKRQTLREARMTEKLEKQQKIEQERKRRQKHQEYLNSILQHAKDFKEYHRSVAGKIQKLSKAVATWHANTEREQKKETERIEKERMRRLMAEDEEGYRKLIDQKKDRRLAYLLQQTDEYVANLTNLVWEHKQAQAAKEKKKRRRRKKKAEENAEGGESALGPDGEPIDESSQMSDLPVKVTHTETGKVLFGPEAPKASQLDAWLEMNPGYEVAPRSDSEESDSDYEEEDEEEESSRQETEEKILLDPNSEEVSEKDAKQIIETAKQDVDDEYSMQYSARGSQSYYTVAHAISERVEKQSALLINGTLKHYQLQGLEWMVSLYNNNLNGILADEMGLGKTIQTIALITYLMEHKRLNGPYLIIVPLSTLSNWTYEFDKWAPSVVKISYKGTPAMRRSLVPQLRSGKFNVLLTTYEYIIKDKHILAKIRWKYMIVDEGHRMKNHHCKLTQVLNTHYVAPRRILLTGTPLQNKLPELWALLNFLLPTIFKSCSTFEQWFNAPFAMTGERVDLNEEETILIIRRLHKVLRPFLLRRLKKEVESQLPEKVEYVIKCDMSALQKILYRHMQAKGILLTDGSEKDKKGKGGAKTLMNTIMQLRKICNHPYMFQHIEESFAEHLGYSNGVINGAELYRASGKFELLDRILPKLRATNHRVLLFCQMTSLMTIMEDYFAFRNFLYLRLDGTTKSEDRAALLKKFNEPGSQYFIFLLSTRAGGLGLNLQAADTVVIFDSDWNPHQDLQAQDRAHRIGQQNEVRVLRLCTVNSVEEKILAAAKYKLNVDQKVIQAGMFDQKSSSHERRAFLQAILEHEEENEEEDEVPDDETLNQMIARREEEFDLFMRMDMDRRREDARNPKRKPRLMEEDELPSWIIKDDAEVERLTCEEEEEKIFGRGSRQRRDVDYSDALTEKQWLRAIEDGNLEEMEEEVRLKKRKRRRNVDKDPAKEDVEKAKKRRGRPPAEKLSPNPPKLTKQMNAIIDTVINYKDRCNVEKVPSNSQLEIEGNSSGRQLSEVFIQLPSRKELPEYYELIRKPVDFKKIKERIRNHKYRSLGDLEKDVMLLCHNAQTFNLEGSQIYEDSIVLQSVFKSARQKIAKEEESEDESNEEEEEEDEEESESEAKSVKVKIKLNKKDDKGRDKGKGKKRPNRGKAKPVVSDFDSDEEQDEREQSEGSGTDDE

Example results:
Please give the measured IC50 for this molecule: COc1ccc2cc(-c3ccc4nc(CNC(=O)c5ccn(C(C)(C)C)c5)[nH]c4c3)ccc2c1 [Compound 44]
10 to 100 nM

Also C[C@@H]1CN(c2cccc(-c3ccc4cnc(CNC(=O)c5ccn(C(C)(C)C)n5)cc4n3)n2)C[C@H](C)O1 [Compound 78] ?
10 to 100 nM

Also CC(C)(C)n1ccc(C(=O)NCc2nc3ccc(-c4cccc5ccncc45)cc3[nH]2)c1 [Compound 51] ?
10 to 100 nM

Also CC(C)(C)n1ccc(C(=O)NCc2nc3ccc(-c4ccc(-n5cccn5)cc4)cc3[nH]2)c1 [Compound 54] ?
100 to 1000 nM

Also C[C@@H]1CN(c2cccc(-c3ccc4nc(CNC(=O)c5ccn(S(C)(=O)=O)c5)[nH]c4c3)c2)C[C@H](C)O1 [Compound 11] ?
10 to 100 nM

Below is a list of molecules. For each, state its recorded IC50.
1. CS(=O)(=O)n1ccc(C(=O)NCc2nc3ccc(-c4cccc(-c5ccncc5)c4)nc3[nH]2)c1 [Compound 2]
2. CS(=O)(=O)n1ccc(C(=O)NCc2cc3nc(-c4cccc(C(F)F)c4)ccc3cn2)c1 [Compound 65]

1. 10 to 100 nM
2. 100 to 1000 nM

###

A short record of IC50 observed with BRM (Homo sapiens, UniProt P51531) follows.

Example results:
Request body: readout IC50, system BRM (Homo sapiens, UniProt P51531), query CS(=O)(=O)n1ccc(C(=O)NCc2nc3ccc(-c4ccccc4)cc3[nH]2)c1 [Compound 27] . Return the value.
100 to 1000 nM

Also CC(C)(C)n1ccc(C(=O)NCc2nc3ccc(-c4ccc5scnc5c4)cc3[nH]2)c1 [Compound 42] ?
10 to 100 nM

Below is a list of compounds. For each, state its recorded IC50.
1. COC(=O)N1CCC[C@@H](c2ccc3nc(CNC(=O)c4ccn(S(C)(=O)=O)c4)[nH]c3c2)C1 [Compound 21]
2. Cn1ccc2ccc(-c3ccc4nc(CNC(=O)c5ccn(C6(C)COC6)c5)[nH]c4c3)cc2c1=O [Compound 20]
3. CS(=O)(=O)n1ccc(C(=O)NCc2nc3ccc(-c4cccc(N5CCC(O)CC5)c4)nc3[nH]2)c1 [Compound 12]
4. CS(=O)(=O)n1ccc(C(=O)NCc2cc3nc(-c4cccc(OC5CC5)c4)ccc3cn2)c1 [Compound 70]
5. COC(=O)N1CCC[C@@H](c2ccc3nc(CNC(=O)c4ccn(S(C)(=O)=O)c4)[nH]c3n2)C1 [Compound 25]

1: 100 to 1000 nM; 2: 100 to 1000 nM; 3: 100 to 1000 nM; 4: 100 to 1000 nM; 5: 100 to 1000 nM

Below is a list of compounds. For each, state its recorded IC50.
1. CS(=O)(=O)n1ccc(C(=O)NCc2cc3nc(-c4cccc(N5CCC5)c4)ccc3cn2)c1 [Compound 64]
2. CN1CCc2cc(-c3ccc4cnc(CNC(=O)c5ccn(S(C)(=O)=O)c5)cc4n3)ccc21 [Compound 72]

1. 10 to 100 nM
2. 100 to 1000 nM

###

A short record of IC50 observed with BRG-1 (Homo sapiens, UniProt P51532) follows.
Sequence (P51532 whole entry): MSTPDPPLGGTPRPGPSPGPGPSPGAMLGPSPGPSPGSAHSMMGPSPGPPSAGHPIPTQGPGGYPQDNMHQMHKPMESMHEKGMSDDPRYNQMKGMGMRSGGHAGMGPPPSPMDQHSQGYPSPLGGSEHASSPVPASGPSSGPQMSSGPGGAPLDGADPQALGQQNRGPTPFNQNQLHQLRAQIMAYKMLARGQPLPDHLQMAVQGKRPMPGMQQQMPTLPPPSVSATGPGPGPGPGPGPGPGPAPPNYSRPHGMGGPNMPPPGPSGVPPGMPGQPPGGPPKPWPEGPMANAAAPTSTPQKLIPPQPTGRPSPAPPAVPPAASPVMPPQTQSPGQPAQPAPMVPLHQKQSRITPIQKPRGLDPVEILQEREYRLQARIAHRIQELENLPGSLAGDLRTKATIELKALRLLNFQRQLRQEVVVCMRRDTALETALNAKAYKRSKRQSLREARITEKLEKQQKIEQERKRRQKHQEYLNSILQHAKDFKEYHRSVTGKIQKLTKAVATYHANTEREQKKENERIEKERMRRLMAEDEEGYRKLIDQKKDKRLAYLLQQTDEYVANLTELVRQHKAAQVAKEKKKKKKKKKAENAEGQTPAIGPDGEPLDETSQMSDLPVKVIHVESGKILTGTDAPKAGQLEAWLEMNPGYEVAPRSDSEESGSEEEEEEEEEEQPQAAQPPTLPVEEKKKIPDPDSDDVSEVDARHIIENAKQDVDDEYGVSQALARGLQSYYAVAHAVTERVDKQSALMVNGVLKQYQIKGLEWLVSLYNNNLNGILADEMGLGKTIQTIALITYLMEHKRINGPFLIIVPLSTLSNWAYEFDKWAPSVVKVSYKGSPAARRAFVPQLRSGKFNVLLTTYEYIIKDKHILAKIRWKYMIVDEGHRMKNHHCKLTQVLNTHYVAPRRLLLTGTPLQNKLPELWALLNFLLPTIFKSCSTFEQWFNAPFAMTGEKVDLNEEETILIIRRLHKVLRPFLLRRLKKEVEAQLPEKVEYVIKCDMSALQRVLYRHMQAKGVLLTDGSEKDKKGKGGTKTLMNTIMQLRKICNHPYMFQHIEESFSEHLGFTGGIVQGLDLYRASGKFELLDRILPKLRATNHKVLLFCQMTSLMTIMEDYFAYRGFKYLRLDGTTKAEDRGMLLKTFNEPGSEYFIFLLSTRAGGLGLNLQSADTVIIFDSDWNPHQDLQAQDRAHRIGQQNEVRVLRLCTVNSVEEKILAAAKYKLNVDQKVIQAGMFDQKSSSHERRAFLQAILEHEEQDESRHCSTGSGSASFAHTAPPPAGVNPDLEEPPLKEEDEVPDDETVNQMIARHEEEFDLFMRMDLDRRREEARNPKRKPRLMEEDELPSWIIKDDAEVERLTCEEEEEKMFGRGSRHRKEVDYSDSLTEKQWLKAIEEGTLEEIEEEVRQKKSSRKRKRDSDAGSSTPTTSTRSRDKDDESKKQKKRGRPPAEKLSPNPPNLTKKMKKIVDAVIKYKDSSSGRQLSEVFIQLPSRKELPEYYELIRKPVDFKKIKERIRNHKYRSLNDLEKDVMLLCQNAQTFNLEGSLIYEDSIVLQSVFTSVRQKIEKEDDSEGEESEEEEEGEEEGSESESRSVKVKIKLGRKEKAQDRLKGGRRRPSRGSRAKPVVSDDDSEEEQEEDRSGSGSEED

Request body: readout IC50, system BRG-1 (Homo sapiens, UniProt P51532), query `COc1ccccc1-c1ccc2cnc(CNC(=O)c3ccn(S(C)(=O)=O)c3)cc2n1` . Return the value.
100 to 1000 nM

Also `COC(=O)N1CCC[C@@H](c2ccc3nc(CNC(=O)c4ccn(S(C)(=O)=O)c4)[nH]c3n2)C1` ?
100 to 1000 nM

Also `CS(=O)(=O)n1ccc(C(=O)NCc2cc3nc(-c4ccc5c(c4)CCO5)ccc3cn2)c1` ?
100 to 1000 nM

Note: attention shifts to another entry.
Request body: readout IC50, system BRG-1 (Homo sapiens, UniProt P51532), query `COc1cccc(-c2ccc3nc(CNC(=O)c4cc(C)n(S(C)(=O)=O)c4)[nH]c3c2)c1` . Return the value.
10 to 100 nM

###

A short record of IC50 observed with UniProtKB P51532 follows.

Please give the measured IC50 for this compound: CS(=O)(=O)n1ccc(C(=O)NCc2nc3ccc(-c4cccc(N5CCC5)c4)nc3[nH]2)c1 [Compound 10]
100 to 1000 nM

Also CS(=O)(=O)n1ccc(C(=O)NCc2nc3ccc(-c4cccc(OC(F)(F)F)c4)nc3[nH]2)c1 [Compound 29] ?
100 to 1000 nM

Also C[C@@H]1CN(c2cccc(-c3ccc4nc(CNC(=O)c5ccn(S(C)(=O)=O)c5)[nH]c4n3)c2)C[C@H](C)O1 [Compound 13] ?
10 to 100 nM

Also CS(=O)(=O)n1ccc(C(=O)NCc2cc3nc(-c4ccc5c(c4)OCC5)ccc3cn2)c1 [Compound 68] ?
100 to 1000 nM

Also CN(C)c1ncc(-c2ccc3nc(CNC(=O)c4ccn(C(C)(C)C)c4)[nH]c3c2)cn1 [Compound 56] ?
10 to 100 nM

Also Nc1ccc(C(=O)NCc2nc3ccc(-c4cccc(-c5ccncc5)c4)nc3[nH]2)cc1 [Compound 1] ?
100 to 1000 nM

Below is a list of compounds. For each, state its recorded IC50.
1. CC(C)(C)n1ccc(C(=O)NCc2nc3ccc(-c4cc(Cl)cc(C#N)c4)cc3[nH]2)c1 [Compound 30]
2. CC(C)(C)n1ccc(C(=O)NCc2nc3ccc(-c4ccc5c(c4)OCC5)cc3[nH]2)c1 [Compound 45]
3. CS(=O)(=O)n1ccc(C(=O)NCc2nc3ccc(-c4cccc(N5CCC(O)CC5)c4)nc3[nH]2)c1 [Compound 12]

100 to 1000 nM
100 to 1000 nM
100 to 1000 nM

###

# System: UniProt:P51532
Experimental readout: IC50

Example results:
Please give the measured IC50 for this compound: CN1Cc2ccc(-c3ccc4nc(CNC(=O)c5ccn(C(C)(C)C)c5)[nH]c4c3)cc2C1=O [Compound 31]
10 to 100 nM

Also Cc1nn(C)c2ccc(-c3ccc4nc(CNC(=O)c5ccn(C(C)(C)C)c5)[nH]c4c3)cc12 [Compound 49] ?
10 to 100 nM

Below is a list of compounds. For each, state its recorded IC50.
1. Cc1ccc2cc(-c3ccc4nc(CNC(=O)c5ccn(C(C)(C)C)c5)[nH]c4c3)ccc2n1 [Compound 57]
2. COc1cccc(-c2ccc3cnc(CNC(=O)c4ccn(S(C)(=O)=O)c4)cc3n2)c1 [Compound 62]

1: 10 to 100 nM; 2: 100 to 1000 nM
